- Test system: IGROV1 ovarian
- measurement_description: NCI-60 one-dose screen, 48 h
- assay_context: 10 µM unless noted
The panel holds about 83,000 compounds, 20% with a hit somewhere; the sample as a whole holds those more often. Calls of active or inactive are those of the source. Rule for the calls: active = growth percent below 10; inactive = the rest.
Write down the outcome that applies. Available outcomes: true (1) = active, false (0) = inactive

Q) Record lookup: outcome of this test for `O=S=Nc1ccc([N+](=O)[O-])cc1` ?
A) false (0)

Q) Record request — test call for `Cc1ccc(OCCn2c(C)nn(-c3ccc(Cl)cc3)c2=O)cc1`
A) false (0)

Q) What is the recorded call for this molecule in the test? `C/C(=N\NC(=O)CC#N)c1cc2cc(Cl)ccc2o1`
A) false (0)

Q) Hey, what did the test say about `CCN(CC)P(=O)(N(CC)CC)N(CCCSC/C=C(\C)CC/C=C(\C)CCC=C(C)C)CCCN1CCN(C)CC1` ?
A) false (0)

Q) So what was the verdict on `O=C(O)Cc1ccc2c(c1)Cc1cccnc1O2` in this test?
A) false (0)

Q) Status in this test for `CCN(Cc1ccc(CN(CC)C(=O)C(Br)Br)cc1)C(=O)C(Br)Br` ?
A) false (0)

Q) What was the test verdict on `O=S(=O)(NCCNc1nccc(-c2c(-c3ccccc3)nc3sccn23)n1)c1ccc(O)cc1` ?
A) false (0)

Q) Test call for this molecule, please: `COc1ccc(NC(=O)CSc2nc3ccccc3c(=O)n2Cc2cc(OC)c(OC)c(OC)c2)cc1`
A) false (0)

Q) Which outcome was entered for the molecule `Cc1cc(C)c2c(=O)[nH]c(SCC(=O)Nc3cccc(S(=O)(=O)N(C)C)c3)nc2n1` in this test?
A) false (0)

Q) So what was the verdict on CCN(CC)CCCC(C)N=c1cc(Nc2cc(=NC(C)CCCN(CC)CC)c3cc(OC)ccc3o2)oc2ccc(OC)cc12 (stereo unspecified) in this test?
A) true (1)

Q) What did the test return for `COc1cc(C(=O)OCCCCCCCCCCC[P+](c2ccccc2)(c2ccccc2)c2ccccc2)ccc1O` ?
A) false (0)

Q) Please share the test call associated with `NCCSC(c1ccccc1)(c1ccccc1)c1ccccc1` .
A) false (0)

Q) What did this assay record as the result for `O=S(=O)(NCCCNc1cc(-c2cn(-c3ccccc3)nc2-c2cccc(O)c2)ccn1)c1cccc(F)c1` ?
A) false (0)

Q) Per the assay record, what outcome was assigned to `Cc1oc2nc[nH]c(=O)c2c1C(=O)/C=C/c1ccc(Cl)cc1Cl` ?
A) false (0)

Q) I'd appreciate the recorded outcome for NC(CC(N)C(=O)O)C(=O)O (stereo unspecified) from this test.
A) false (0)

Q) Each molecule tested received a call. Report the one for `COc1ccc(-c2nnc(COc3ccc(NC(=O)Nc4ccc(Cl)c(C(F)(F)F)c4)cc3F)o2)cc1` .
A) false (0)

Q) Test call for this molecule, please: CN(C)C1CCC(NC2=CC(=O)C=CC2=O)CC1 (stereo unspecified)
A) false (0)
